pIC50 for assorted binders
- ASSAYED TARGET: T1, mouse DLL4 expressed on CHO cells (mouse, UniProt Q9JI71 27-686)
- T1 construct: whole, on cells; also called mDLL4; CHO-mDLL4
- T1 sequence (Q9JI71 27-686): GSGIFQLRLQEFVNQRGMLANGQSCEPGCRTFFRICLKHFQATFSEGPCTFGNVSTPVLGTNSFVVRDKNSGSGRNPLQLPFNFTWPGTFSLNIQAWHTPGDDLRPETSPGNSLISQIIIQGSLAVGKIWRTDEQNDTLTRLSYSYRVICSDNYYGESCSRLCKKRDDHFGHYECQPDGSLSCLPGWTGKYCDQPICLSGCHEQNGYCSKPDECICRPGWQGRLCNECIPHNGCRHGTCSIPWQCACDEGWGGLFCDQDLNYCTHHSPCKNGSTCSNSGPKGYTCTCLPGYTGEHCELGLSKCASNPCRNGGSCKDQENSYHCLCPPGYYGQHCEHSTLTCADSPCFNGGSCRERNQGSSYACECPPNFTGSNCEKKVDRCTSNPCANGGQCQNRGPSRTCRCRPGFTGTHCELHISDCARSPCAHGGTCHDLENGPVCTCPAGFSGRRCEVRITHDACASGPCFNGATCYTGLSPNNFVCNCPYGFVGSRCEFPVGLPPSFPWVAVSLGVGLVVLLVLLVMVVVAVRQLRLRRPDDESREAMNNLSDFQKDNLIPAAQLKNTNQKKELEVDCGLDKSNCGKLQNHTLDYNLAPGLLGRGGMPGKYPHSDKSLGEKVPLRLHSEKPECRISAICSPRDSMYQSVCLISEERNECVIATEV
- EXPERIMENT DESCRIPTION: competition FMAT, labelled hNotch1-Fc on CHO-mDLL4 cells
The read-out pIC50 is expressed as -log10 of concentration in moles per litre.

{"BINDER": "DLLBII101G08 (VHH, not shown: small tags and cut ends, parent VHH; also called 101G08 (wt); 101G8) VHH: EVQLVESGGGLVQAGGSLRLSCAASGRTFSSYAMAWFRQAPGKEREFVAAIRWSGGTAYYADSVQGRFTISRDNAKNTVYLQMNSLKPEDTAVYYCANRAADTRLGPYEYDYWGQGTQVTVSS", "MEASURE NAME": "pIC50", "REPORTED": 6.85}

Report pIC50 for DLLBII133A09 (VHH, not shown: small tags and cut ends) VHH: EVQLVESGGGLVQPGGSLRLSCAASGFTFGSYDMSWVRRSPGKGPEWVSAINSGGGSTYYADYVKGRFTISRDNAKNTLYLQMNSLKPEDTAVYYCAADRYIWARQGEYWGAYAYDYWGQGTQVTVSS please. 7.73
